system: TK-10 renal; test: NCI tumour cell line growth inhibition, 48 h
assay endpoint: TGI

Identify measured TGI associated with `NC(=O)C(=CNC(=S)c1ccncc1)C(N)=O` > 100 µM

Supply reported TGI belonging to this compound: `CC[C@@]1(O)C(=O)OCc2c1cc1n(c2=O)Cc2c-1nc1cc3c(cc1c2CCl)OCO3` 11.1 µM

Item `COC(=O)c1ccc(C=Nc2ccc(S(N)(=O)=O)cc2)cc1` : provide TGI > 100 µM

Complete the entry with TGI for `O=C1C=C(c2ccccc2)O/C1=C/C(=O)c1ccc(Cl)cc1` 35.3 µM

Input `Cc1nn(-c2cc(Cl)ccc2[N+](=O)[O-])c(C)c1Cl` , output reported TGI. > 100 µM

Let me know recorded TGI for `Cn1c2ccccc2c2c(-c3ccccc3)[n+]3ccncc3nc21` , thanks. > 100 µM

====

tested on: SF-268 CNS; test: NCI tumour cell line growth inhibition, 48 h
Hi there, I'd appreciate the recorded TGI for every entry that follows.
Provide the reading as a plain figure in µM.

Determine its reported TGI: `O=C1/C(=C/c2ccccc2)CNC/C1=C\c1ccccc1` 9.34

For `O/N=C/C1c2ccccc2-c2ccccc21` , write its TGI. 37.6

Return TGI (reported value) for this molecule: CC(C)(C)[Si](C)(C)OCC1OC(n2cnc3c(N)ncnc32)C(O[Si](C)(C)C(C)(C)C)C1O[Si](C)(C)C(C)(C)C (stereo not given) 56.5

====

Please provide measured TGI for the entries that follow.
tested on: HL-60(TB) leukemia; assay: NCI tumour cell line growth inhibition, 48 h
Where a SMILES comes first, the peptide text is derived from it. The star is where a group is joined. Cbz = O=C(OCc1ccccc1)*; NHNH2 = NN*

Give HL-60(TB) leukemia TGI for the following compound: COC12C=C(C)C(CC1)CC2C(=O)O (centres undefined) > 100 µM

Give measured TGI for `CC(=O)CNC(=O)OC(C)(C)C` (HL-60(TB) leukemia). > 100 µM

Name the value of TGI reported for OC1(c2ccc(Cl)cc2)c2ccc3ccccc3c2C2=N[C@H]3CCCC[C@@H]3N21 (some centres undefined) when tested on HL-60(TB) leukemia. > 100 µM

Would you please give the reported TGI of `CC(C)(C)OC(=O)N1CCc2c(sc3ncnc(N/N=C/c4cccc5ccccc45)c23)C1` with HL-60(TB) leukemia? 13.4 µM

Give TGI for `COC(=O)c1c/c(=N\NC(=O)CC(=O)Nc2ccccc2OC)c2ccccc2o1` tested on HL-60(TB) leukemia. > 100 µM

// fetch TGI; item: COC(=O)CC(NC(=O)OCc1ccccc1)C(=O)NC(CC(=O)OC)C(=O)NC(CC(=O)OC)C(=O)NC(CC(=O)OC)C(=O)NC(CC(=O)OC)C(=O)NC(CC(=O)OC)C(=O)NN (centres undefined) (Cbz-D(OMe)D(OMe)D(OMe)D(OMe)D(OMe)D(OMe)-NHNH2; configuration not given here) ; system: HL-60(TB) leukemia > 100 µM

Find the measured TGI of `CCOc1cc(-c2nc3ccccn3c2/N=C/c2cc(Br)ccc2O)ccc1O` with HL-60(TB) leukemia as test system. > 100 µM

Would you please give the reported TGI of `O=C(c1ccccc1)c1nnc(C(=O)c2ccccc2)nn1` with HL-60(TB) leukemia? > 344 µM

System HL-60(TB) leukemia. Read-out TGI. Item `O=C(Nc1ccccc1C(=O)NCCCO)/C(=C/c1ccccc1O)NC(=O)c1ccccc1` . Report value. > 100 µM

Origin of values: PubChem BioAssay (NCI)
